- Test system: normal ECG in rats
- ASSAY_OVERVIEW: The effect on normal electrocardiogram in rats
- Format: in vivo, rat
- STUDY_CONDITIONS: anesthetized rats, i.p. at ED84; 10 min
ATTRIBUTE_MEASURED: QRS (ECG) (ms)
All answers are understood in ms, so give the number only.

Check out these entries, answers already filled in.
| QUERY_SMILES | U | QRS (ECG) |
| --- | --- | --- |
| COc1ccccc1N1CCN(CCCOc2cc(C)cc(C)c2C)CC1 | ms | 34.0 |
| COc1ccccc1N1CCN(CCOCCOc2c(C)cccc2Cl)CC1.Cl | ms | 26.1 |
| COc1ccccc1N1CCN(CCCOc2c(C)cc(C)cc2C)CC1 | ms | 30.8 |
| COc1ccccc1N1CCN(CCOCCOc2c(C)cccc2C)CC1.Cl | ms | 27.6 |

Form: compound = COc1ccccc1N1CCN(CCCOc2cc(C)ccc2Cl)CC1 ; QRS (ECG) = 21.7

* * *

- Tested on: normal ECG in rats
- ASSAY_OVERVIEW: The effect on normal electrocardiogram in rats
- Type: in vivo, rat
- STUDY_CONDITIONS: anesthetized rats, i.p. at ED84; 50 min
# reported QTc (ECG, Bazett); entries follow
A complete answer gives the number and then names the unit.

Check out these entries, answers already filled in.
| QUERY_SMILES | QTc (ECG, Bazett) |
| --- | --- |
| COc1ccccc1N1CCN(CCCOc2cc(C)cc(C)c2C)CC1 | 196.2 ± 6.9 ms |
| COc1ccccc1N1CCN(CCCOc2c(C)cc(C)cc2C)CC1 | 157.2 ± 9.9 ms |
| COc1ccccc1N1CCN(CCOCCOc2c(C)cccc2Cl)CC1.Cl | 212.7 ± 6.9 ms |
| COc1ccccc1N1CCN(CCCOc2cc(C)ccc2Cl)CC1 | 121.1 ± 8.7 ms |

Note: attention shifts to another entry.
Fill in: normal ECG in rats QTc (ECG, Bazett) for COc1ccccc1N1CCN(CCOCCOc2c(C)cccc2C)CC1.Cl = 210.9 ± 5.1 ms

* * *

- Tested on: normal ECG in rats
- ASSAY_OVERVIEW: The effect on normal electrocardiogram in rats
- Assay type: in vivo, rat
- STUDY_CONDITIONS: anesthetized rats, i.p. at ED84; 50 min
Marks after values point to notes of the source that are not given here.
# reported Beats/min (ECG); entries follow

| QUERY_SMILES | Beats/min (ECG) |
| --- | --- |
| COc1ccccc1N1CCN(CCCOc2cc(C)ccc2Cl)CC1 | 291.4 ± 13.0^b Beats/min |
| COc1ccccc1N1CCN(CCCOc2cc(C)cc(C)c2C)CC1 | 396.8 ± 31.8 Beats/min |
| COc1ccccc1N1CCN(CCCOc2c(C)cc(C)cc2C)CC1 | 258.9 ± 25.4^c Beats/min |

Form: compound = COc1ccccc1N1CCN(CCOCCOc2c(C)cccc2Cl)CC1.Cl ; Beats/min (ECG) = 350.1 ± 17.9 Beats/min

Form: compound = COc1ccccc1N1CCN(CCOCCOc2c(C)cccc2C)CC1.Cl ; Beats/min (ECG) = 361.6 ± 12.6 Beats/min

* * *

- System: normal ECG in rats
- ASSAY_OVERVIEW: The effect on normal electrocardiogram in rats
- Format: in vivo, rat
- STUDY_CONDITIONS: anesthetized rats, i.p. at ED84; 20 min
Outcome: condition met for PQ (ECG) of at least 60 ms; condition not met for anything lower.

Reference set, count: 3
| MOLECULE | MEASUREMENT_TARGET | QUALITATIVE_LABEL |
| --- | --- | --- |
| COc1ccccc1N1CCN(CCCOc2cc(C)ccc2Cl)CC1 [HBK-16] | normal ECG in rats | condition met |
| COc1ccccc1N1CCN(CCOCCOc2c(C)cccc2Cl)CC1.Cl [HBK-15] | normal ECG in rats | condition not met |
| COc1ccccc1N1CCN(CCCOc2c(C)cc(C)cc2C)CC1 [HBK-18] | normal ECG in rats | condition not met |

Next, consider the following molecule.
Does PQ (ECG) meet or surpass 60 ms for COc1ccccc1N1CCN(CCOCCOc2c(C)cccc2C)CC1.Cl [HBK-14] ?
condition not met

* * *

# reported QT (ECG); entries follow
- System: normal ECG in rats
- ASSAY_OVERVIEW: The effect on normal electrocardiogram in rats
- Type: in vivo, rat
- STUDY_CONDITIONS: anesthetized rats, i.p. at ED84; 30 min
All answers are understood in ms, so give the number only.

Form: compound = COc1ccccc1N1CCN(CCOCCOc2c(C)cccc2C)CC1.Cl [HBK-14] ; QT (ECG) = 89.6

Form: compound = COc1ccccc1N1CCN(CCOCCOc2c(C)cccc2Cl)CC1.Cl [HBK-15] ; QT (ECG) = 86.7

Form: compound = COc1ccccc1N1CCN(CCCOc2c(C)cc(C)cc2C)CC1 [HBK-18] ; QT (ECG) = 75.3

Form: compound = COc1ccccc1N1CCN(CCCOc2cc(C)ccc2Cl)CC1 [HBK-16] ; QT (ECG) = 52.7

Form: compound = COc1ccccc1N1CCN(CCCOc2cc(C)cc(C)c2C)CC1 [HBK-19] ; QT (ECG) = 82.2

* * *

- Test system: blood pressure in normotensive rats
- ASSAY_OVERVIEW: Influence on blood pressure in normotensive rats
- Assay type: in vivo, rat
- STUDY_CONDITIONS: normotensive rats, lowest dose significantly lowering systolic and diastolic blood pressure
ATTRIBUTE_MEASURED: lowest hypotensive dose
A complete answer gives the number and then names the unit.

Check out these entries, answers already filled in.
| QUERY_SMILES | lowest hypotensive dose |
| --- | --- |
| COc1ccccc1N1CCN(CCCOc2cc(C)cc(C)c2C)CC1 | 0.625 mg/kg |
| COc1ccccc1N1CCN(CCCOc2cc(C)ccc2Cl)CC1 | 0.1 mg/kg |
| COc1ccccc1N1CCN(CCOCCOc2c(C)cccc2Cl)CC1.Cl | 5.0 mg/kg |
| COc1ccccc1N1CCN(CCOCCOc2c(C)cccc2C)CC1.Cl | 0.625 mg/kg |

Note: attention shifts to another entry.
Fill in: blood pressure in normotensive rats lowest hypotensive dose for COc1ccccc1N1CCN(CCCOc2c(C)cc(C)cc2C)CC1 = 0.01 mg/kg

* * *

- System: normal ECG in rats
- ASSAY_OVERVIEW: The effect on normal electrocardiogram in rats
- Assay type: in vivo, rat
- STUDY_CONDITIONS: anesthetized rats, i.p. at ED84; 5 min
Rule for this label: MET means QTc (ECG, Bazett) is less than 200 ms; NOT MET means QTc (ECG, Bazett) is at least 200 ms.

Reference set, count: 3
| COMPOUND | QUALITATIVE_LABEL |
| --- | --- |
| COc1ccccc1N1CCN(CCOCCOc2c(C)cccc2Cl)CC1.Cl [HBK-15] | NOT MET |
| COc1ccccc1N1CCN(CCOCCOc2c(C)cccc2C)CC1.Cl [HBK-14] | NOT MET |
| COc1ccccc1N1CCN(CCCOc2cc(C)cc(C)c2C)CC1 [HBK-19] | MET |

In the record for COc1ccccc1N1CCN(CCCOc2cc(C)ccc2Cl)CC1 [HBK-16] , is QTc (ECG, Bazett) less than 200 ms?
MET

In the record for COc1ccccc1N1CCN(CCCOc2c(C)cc(C)cc2C)CC1 [HBK-18] , is QTc (ECG, Bazett) less than 200 ms?
MET

* * *

- Tested on: normal ECG in rats
- ASSAY_OVERVIEW: The effect on normal electrocardiogram in rats
- Format: in vivo, rat
- STUDY_CONDITIONS: anesthetized rats, i.p. at ED84; 50 min
ATTRIBUTE_MEASURED: QT (ECG) (ms)
All answers are understood in ms, so give the number only.

| QUERY_SMILES | QT (ECG) / ms |
| --- | --- |
| COc1ccccc1N1CCN(CCCOc2cc(C)ccc2Cl)CC1 | 54.7 |

Form: compound = COc1ccccc1N1CCN(CCCOc2c(C)cc(C)cc2C)CC1 ; QT (ECG) = 76.0

Form: compound = COc1ccccc1N1CCN(CCCOc2cc(C)cc(C)c2C)CC1 ; QT (ECG) = 76.5

Form: compound = COc1ccccc1N1CCN(CCOCCOc2c(C)cccc2Cl)CC1.Cl ; QT (ECG) = 88.2

Form: compound = COc1ccccc1N1CCN(CCOCCOc2c(C)cccc2C)CC1.Cl ; QT (ECG) = 87.9

* * *

# reported pKi; entries follow
- MEASUREMENT_TARGET: α1-adrenoceptor
- ASSAY_OVERVIEW: α1-adrenoceptor radioligand binding assay ([3H]-prazosin, rat cerebral cortex)
- STUDY_CONDITIONS: read-out: Adrenergic receptors Ki α1
Reminder that pKi means the negative base-10 logarithm of the concentration expressed in mol/L.

Check out these entries, answers already filled in.
| COMPOUND | pKi |
| --- | --- |
| COc1ccccc1N1CCN(CCCOc2cc(C)cc(C)c2C)CC1 [HBK-19] | 7.64 |
| Cc1ccc(N(CC2=NCCN2)c2cccc(O)c2)cc1 [Phentolamine, phentolamine, reference compound] | 7.74 |
| COc1ccccc1N1CCN(CCCOc2c(C)cc(C)cc2C)CC1 [HBK-18] | 8.28 |

Note: attention shifts to another entry.
Form: compound = COc1ccccc1N1CCN(CCCOc2cc(C)ccc2Cl)CC1 [HBK-16] ; pKi = 8.30
